Biological target: T1, serum resistance-associated protein (SRA) from Trypanosoma brucei rhodesiense, recombinant SRA (SEQ ID NO: … (Trypanosoma brucei rhodesiense, UniProt O96637 31-274))
T1 construct: also called SRA protein
T1 sequence: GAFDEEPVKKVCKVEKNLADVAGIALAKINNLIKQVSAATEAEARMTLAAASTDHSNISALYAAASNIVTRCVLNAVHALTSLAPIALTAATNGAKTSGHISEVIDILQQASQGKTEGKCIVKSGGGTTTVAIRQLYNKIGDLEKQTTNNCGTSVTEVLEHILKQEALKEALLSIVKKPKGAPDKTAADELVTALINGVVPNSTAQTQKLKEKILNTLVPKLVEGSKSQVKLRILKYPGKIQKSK
Test: SPR, mAb captured, 25C, pH 7.4
assay-readout: t ½

# t ½ lookup, item H1H10059P (antibody, V domains shown, Fully human antibody with human IgG1 Fc (prefix H1H)) VH: QVQLVQSGAEVKKPGASVKVSCKAAGFTFIGYYIHWVRQAPGQGLEWMGWINSNSGDKDSAPKFQDRVTMTRDTSISTAYMELSRLRSDDTAVYFCAREGYNFGHFDYWGQGTLVTVSS VL: DIVMTQTPLSSPVTLGQPASISCRSSQSLVHSDGNTYLSWLQQRPGQPPRLLIYKISNRLSGVPDRFSGSGAGTDFTLKISRVEGEDVGVYYCMQGTQFPRTFGQGTKVEIK
≥ 3.85 h
